Entry source: the supplement of paper PMC13380429

Tested on: A549-ACE2 infected with SARS-CoV-2
Test: morphology score (similarity to uninfected cells); higher = more like uninfected cells
Details: 30 µM; 24 h
property: morphology score
The answer should be a number; do not append a unit.

Known results for compounds:
compound: CNCCC(Oc1ccc(C(F)(F)F)cc1)c1ccccc1 (centres undefined)
test_system: A549-ACE2 infected with SARS-CoV-2
morphology score: 0.74
//
compound: COc1cc2c(NC3CCN(C(C)C)CC3)nc(C3CCCCC3)nc2cc1OCCCN1CCCC1
test_system: A549-ACE2 infected with SARS-CoV-2
morphology score: -0.22
//
compound: C=C1C(=O)O[C@@H]2[C@H]3C(C)=CC[C@@]34O[C@@]4(C)CC[C@@H]12
test_system: A549-ACE2 infected with SARS-CoV-2
morphology score: 0.3

Q) Could you share which morphology score value was measured for CCOC(=O)C1=C(COCCN)NC(C)=C(C(=O)OC)C1c1ccccc1Cl (centres undefined) ?
A) 0.35

====

System: Vero E6
Test: cell viability relative to DMSO; higher = less toxic
Settings: 72 h; 100 nM
Recorded cell viability by entry
Give just the numeric value; % need not be written.

Some solved cases for reference:
compound: CCC(CO)(C(=O)OC1CC2CCC(C1)[N+]2(C)C)c1ccccc1 (configuration not stated)
unit_label: %
recorded_measurement: 86.6
//
compound: Cc1c2oc3c(C)ccc(C(=O)N[C@@H]4C(=O)N[C@@H](C(C)C)C(=O)N5CCC[C@H]5C(=O)N(C)CC(=O)N(C)[C@@H](C(C)C)C(=O)O[C@@H]4C)c3nc-2c(C(=O)N[C@@H]2C(=O)N[C@@H](C(C)C)C(=O)N3CCC[C@H]3C(=O)N(C)CC(=O)N(C)[C@@H](C(C)C)C(=O)O[C@@H]2C)c(N)c1=O
unit_label: %
recorded_measurement: 79.5
//
compound: CCOc1ccn(-c2ccc(F)cc2)c(=O)c1C(=O)Nc1ccc(Oc2ccnc(N)c2Cl)c(F)c1
unit_label: %
recorded_measurement: 101
//
compound: Cc1oc(-c2ccccc2)nc1CCC(=O)c1ccc(CC2SC(=O)NC2=O)cc1 (configuration not stated)
unit_label: %
recorded_measurement: 83.3
//
compound: CON(C)C(=O)N1N=C(c2cc(F)ccc2F)S[C@@]1(CCCN)c1ccccc1
unit_label: %
recorded_measurement: 45.1

Q) Requested field: cell viability. Item: `COc1cc2c(CCNC(C)=O)c[nH]c2cc1Cl`
A) 96.2

Q) Requested field: cell viability. Item: `Fc1ccc(Cn2c(NC3CCNCC3)nc3ccccc32)cc1`
A) 101

====

Entries and their drug sensitivity score
Tested on: U2OS
Test: drug sensitivity score (DSS) for viability; higher = more toxic; extreme values may be limits of the assay
Conditions: 72 h
Write no unit; give the number alone.

// known answers, use as guide
compound: O=C1Cc2cc(CCN3CCN(c4nsc5ccccc45)CC3)c(Cl)cc2N1 [ziprasidone]
test_system: U2OS
drug sensitivity score: 0

compound: Cc1ccc(OCCSc2ncccn2)c(Br)c1 [ZLN024]
test_system: U2OS
drug sensitivity score: 0

compound: C[C@H]1O[C@@H](O[C@H]2[C@@H](O)C[C@H](O[C@H]3[C@@H](O)C[C@H](O[C@H]4CC[C@@]5(C)[C@H](CC[C@@H]6[C@@H]5C[C@@H](O)[C@]5(C)[C@@H](C7=CC(=O)OC7)CC[C@]65O)C4)O[C@@H]3C)O[C@@H]2C)C[C@H](O)[C@@H]1O [digoxin]
test_system: U2OS
drug sensitivity score: 20.1

compound: CO[C@H]1CC[C@H](N(c2cc(C3=CCCCC3)sc2C(=O)O)C(=O)[C@H]2CC[C@H](C)CC2)CC1 [VCH-916]
test_system: U2OS
drug sensitivity score: 0

compound: CC(C)(C)n1nc(-c2cccc3ccccc23)c2c(N)ncnc21 [1-naphthyl-PP1]
test_system: U2OS
drug sensitivity score: 1.7

compound: Nc1ncccc1-c1nc2ccc(-c3ccccc3)nc2n1-c1ccc(C2(N)CCC2)cc1 [ARQ-092]
test_system: U2OS
drug sensitivity score: 2.7

compound: Cc1ccccc1OCC(O)CO (configuration not stated) [mephenesin]
test_system: U2OS
drug sensitivity score: 0

compound: COc1cccc(Nc2ncnn3ccc(CN4CC[C@@H](N)[C@H](O)C4)c23)c1
test_system: U2OS
drug sensitivity score: 3.5

Q) Which measured drug sensitivity score value corresponds to O=C1NC(=S)NC(=O)C1C(=O)Nc1ccccc1 [merbarone] ?
A) 0

Q) State the recorded drug sensitivity score for this entry: COc1ccc(C(Cl)=C(c2ccc(OC)cc2)c2ccc(OC)cc2)cc1 [chlorotrianisene]
A) 0

Q) // query drug sensitivity score value for entry C[C@]12CC[C@H]3[C@@H](CCC4=CC(=O)CC[C@@]43C)[C@@H]1CC[C@@H]2O [TESTOSTERONE]
A) 0

Q) Reported drug sensitivity score for Clc1ccccc1C(c1ccccc1)(c1ccccc1)n1ccnc1 [clotrimazole] : what is it?
A) 1.2

Q) Please give the measured drug sensitivity score for this compound: COc1ccc2c(c1OC)C(=O)O[C@@H]2[C@H]1c2cc3c(cc2CCN1C)OCO3 [hydrastine-(1R,9S)]
A) 0

Q) Fill in: drug sensitivity score of CC(C)C[C@H](NC(=O)[C@@H](COC(C)(C)C)NC(=O)[C@H](Cc1ccc(O)cc1)NC(=O)[C@H](CO)NC(=O)[C@H](Cc1c[nH]c2ccccc12)NC(=O)[C@H](Cc1cnc[nH]1)NC(=O)[C@@H]1CCC(=O)N1)C(=O)N[C@@H](CCCNC(=N)N)C(=O)N1CCC[C@H]1C(=O)NNC(N)=O [goserelin-acetate] is ___
A) 0

Q) Reported drug sensitivity score, compound COc1cc2c(cc1OC)CN(C(=O)/C=C/c1c(-c3ccccc3)n(C)c3ncccc13)CC2 [SIS3] : ____
A) 0
